B1: EEHEE_rd3_0130 (parent)
chain: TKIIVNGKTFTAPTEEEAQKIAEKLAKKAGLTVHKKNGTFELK

Variants of: B1
PROTOCOL TEXT: folding stability dG (cDNA display proteolysis); higher = more stable
EXPERIMENTAL CONDITIONS: PBS, room temperature
Respond with satisfied for folding stability dG values of 1 kcal/mol and above, not satisfied for values below.

Decide: folding stability dG of "TKIIVNGKTFTQPTEEEAQKIAEKLAKKAGLTVHKKNGTFELK" >= 1 kcal/mol?
not satisfied

Can "TKIIVNGKTFWAPTEEEAQKIAEKLAKKAGLTVHKKNGTFELK" be said to have folding stability dG at or above 1 kcal/mol?
satisfied

Does the variant "TKIIVNGKTFTAPTEEEAQKIAEKTAKKAGLTVHKKNGTFELK" have recorded folding stability dG that is 1 kcal/mol or more?
not satisfied

Check the entry "TKIIKNGKTFTAPTEEEAQKIAEKLAKKAGLTVHKKNGTFELK" : does folding stability dG equal or exceed 1 kcal/mol?
not satisfied

// inclusive: folding stability dG at least 1 kcal/mol? input: "TKIIVNEKTFTAPTEEEAQKIAEKLAKKAGLTVHKKNGTFELK"
not satisfied

Quick check, folding stability dG >= 1 kcal/mol? "TKIIVNGKTFTAITEEEAQKIAEKLAKKAGLTVHKKNGTFELK"
not satisfied

# bool: folding stability dG of "TKIIVNGKTFTAPYEEEAQKIAEKLAKKAGLTVHKKNGTFELK" >= 1 kcal/mol
not satisfied

Would you say "TKIIVNGKHFTAPTEEEAQKIAEKLAKKAGLTVHKKNGTFELK" shows folding stability dG at minimum 1 kcal/mol?
not satisfied

Please indicate if the recorded folding stability dG for "TKIIVNGKTFTAPTEEEAQKIAEKLAKKAGLTVIKKNGTFELK" meets or exceeds 1 kcal/mol.
satisfied
